Numbers sourced from the NIST ThermoML archive (doi:10.1021/je200883w).

- experimentalParameters: 338.15 K; 101.33 kPa; Liquid; Concentric cylinders viscometry
valueKind: viscosity (mPa·s)
Return type: number; implicit unit mPa·s.

Prompt: Would you kindly share the measured viscosity for COCC[N+]1(C)CCCC1.O=S(=O)([N-]S(=O)(=O)C(F)(F)F)C(F)(F)F ?
Response: 15.03

Prompt: Requested read-out: viscosity. Entry: CCCC[N+]1(C)CCCC1.FC(F)(F)C(F)(F)[P-](F)(F)(F)(C(F)(F)C(F)(F)F)C(F)(F)C(F)(F)F
Response: 34.79

Prompt: Could you share which viscosity value was measured for CCCC[N+]1(C)CCCC1.O=S(=O)([O-])C(F)(F)F [1-butyl-1-methylpyrrolidinium trifluoromethanesulfonate] ?
Response: 32.45

Prompt: Which value of viscosity has been reported for CCOS(=O)(=O)[O-].CCn1cc[n+](C)c1 [1-ethyl-3-methylimidazolium ethyl sulfate] in the records?
Response: 21.72

----------
- experimentalParameters: 308.15 K; 101.33 kPa; Liquid; Vibrating tube method
valueKind: mass density (kg/m3)
Provide only the numeric value, understood in kg/m3.

Prompt: // mass density lookup, key: CCCC[N+]1(C)CCCC1.O=S(=O)([O-])C(F)(F)F [1-butyl-1-methylpyrrolidinium trifluoromethanesulfonate]
Response: 1245.1

Prompt: Using the record for CCCCCCOS(=O)(=O)[O-].CC[n+]1ccn(C)c1 [3-ethyl-1-methyl-1H-imidazolium hexyl sulfate] , report its mass density.
Response: 1123.7

Prompt: Fill in the blank: the reported mass density of CCCCCCCCCCCCCC[P+](CCCCCC)(CCCCCC)CCCCCC.FC(F)(F)C(F)(F)[P-](F)(F)(F)(C(F)(F)C(F)(F)F)C(F)(F)C(F)(F)F is ____.
Response: 1173.5

----------
- experimentalParameters: 288.15 K; 101.33 kPa; Liquid; Concentric cylinders viscometry
The label is t for viscosity below 200 mPa·s and f for viscosity equal to or exceeding 200 mPa·s.

Prompt: viscosity under 200 mPa·s? Item: CCCCn1cc[n+](C)c1C.O=S(=O)([N-]S(=O)(=O)C(F)(F)F)C(F)(F)F
Response: t

Prompt: Please let me know if CCCC[N+]1(C)CCCC1.O=S(=O)([N-]S(=O)(=O)C(F)(F)F)C(F)(F)F shows viscosity below 200 mPa·s.
Response: t

Prompt: Is it true that viscosity reported for COCC[N+]1(C)CCCC1.O=S(=O)([N-]S(=O)(=O)C(F)(F)F)C(F)(F)F is less than 200 mPa·s?
Response: t

Prompt: Could you please tell me whether viscosity recorded for CCCCCCOS(=O)(=O)[O-].CC[n+]1ccn(C)c1 [3-ethyl-1-methyl-1H-imidazolium hexyl sulfate] is less than 200 mPa·s?
Response: f

Prompt: Record CCCCCCCCCCCCCC[P+](CCCCCC)(CCCCCC)CCCCCC.FC(F)(F)C(F)(F)[P-](F)(F)(F)(C(F)(F)C(F)(F)F)C(F)(F)C(F)(F)F : is its viscosity strictly below 200 mPa·s?
Response: f

Prompt: API: query returns whether the molecule falls strictly under 200 mPa·s in viscosity. Query: CCCC[N+]1(C)CCCC1.FC(F)(F)C(F)(F)[P-](F)(F)(F)(C(F)(F)C(F)(F)F)C(F)(F)C(F)(F)F
Response: f

Prompt: Would you kindly verify if viscosity of CCOS(=O)(=O)[O-].CCn1cc[n+](C)c1 [1-ethyl-3-methylimidazolium ethyl sulfate] is strictly less than 200 mPa·s?
Response: t

Prompt: Check if viscosity falls below 200 mPa·s for CCCC[N+]1(C)CCCC1.O=S(=O)([O-])C(F)(F)F [1-butyl-1-methylpyrrolidinium trifluoromethanesulfonate] .
Response: f

----------
- experimentalParameters: 268.15 K; 101.33 kPa; Liquid; Concentric cylinders viscometry
Kindly supply the reported viscosity values for the records listed here.
Field format: number, assumed mPa·s, no unit text.

Prompt: Give the measured viscosity of CCCCCCOS(=O)(=O)[O-].CC[n+]1ccn(C)c1 [3-ethyl-1-methyl-1H-imidazolium hexyl sulfate] .
Response: 3425.9

Prompt: What does the data say about its viscosity? Entry: COCC[N+]1(C)CCCC1.O=S(=O)([N-]S(=O)(=O)C(F)(F)F)C(F)(F)F
Response: 286.4

Prompt: Which viscosity value is on record for CCOS(=O)(=O)[O-].CCn1cc[n+](C)c1 [1-ethyl-3-methylimidazolium ethyl sulfate] ?
Response: 700.85

Prompt: What measured viscosity goes with CCCCCCCCCCCCCC[P+](CCCCCC)(CCCCCC)CCCCCC.FC(F)(F)C(F)(F)[P-](F)(F)(F)(C(F)(F)C(F)(F)F)C(F)(F)C(F)(F)F ?
Response: 3067.3

----------
- experimentalParameters: 278.15 K; 101.33 kPa; Liquid; Vibrating tube method
For each record, write down the corresponding mass density.
Kindly answer with a numeric value in kg/m3, unit omitted.

Prompt: Data request, read-out mass density, for COCC[N+]1(C)CCCC1.O=S(=O)([N-]S(=O)(=O)C(F)(F)F)C(F)(F)F
Response: 1473.7

Prompt: Fill in: mass density of CCOS(=O)(=O)[O-].CCn1cc[n+](C)c1 [1-ethyl-3-methylimidazolium ethyl sulfate] is ___
Response: 1252

Prompt: // returns reported mass density for input CCCCCCCCCCCCCC[P+](CCCCCC)(CCCCCC)CCCCCC.FC(F)(F)C(F)(F)[P-](F)(F)(F)(C(F)(F)C(F)(F)F)C(F)(F)C(F)(F)F
Response: 1198.9

Prompt: // query mass density value for entry CCCCn1cc[n+](C)c1C.O=S(=O)([N-]S(=O)(=O)C(F)(F)F)C(F)(F)F
Response: 1438.4

Prompt: // returns reported mass density for input CCCCCCOS(=O)(=O)[O-].CC[n+]1ccn(C)c1 [3-ethyl-1-methyl-1H-imidazolium hexyl sulfate]
Response: 1144.4

Prompt: Could you share which mass density value was measured for CCCC[N+]1(C)CCCC1.O=S(=O)([N-]S(=O)(=O)C(F)(F)F)C(F)(F)F ?
Response: 1412.9

----------
- experimentalParameters: 273.15 K; 101.33 kPa; Liquid; Vibrating tube method
valueKind: mass density (kg/m3)
Express it in kg/m3; write the number only.

Prompt: Please look up its mass density: CCOS(=O)(=O)[O-].CCn1cc[n+](C)c1 [1-ethyl-3-methylimidazolium ethyl sulfate]
Response: 1255.7

Prompt: If you can, please state the reported mass density value of CCCCCCCCCCCCCC[P+](CCCCCC)(CCCCCC)CCCCCC.FC(F)(F)C(F)(F)[P-](F)(F)(F)(C(F)(F)C(F)(F)F)C(F)(F)C(F)(F)F .
Response: 1203.2

Prompt: Request the reported mass density associated with COCC[N+]1(C)CCCC1.O=S(=O)([N-]S(=O)(=O)C(F)(F)F)C(F)(F)F
Response: 1478.5

Prompt: mass density lookup needed for CCCCCCOS(=O)(=O)[O-].CC[n+]1ccn(C)c1 [3-ethyl-1-methyl-1H-imidazolium hexyl sulfate] , thanks.
Response: 1147.9

Prompt: For the molecule shown here, CCCCn1cc[n+](C)c1C.O=S(=O)([N-]S(=O)(=O)C(F)(F)F)C(F)(F)F , give the reported mass density.
Response: 1443.3

----------
- experimentalParameters: 363.15 K; 101.33 kPa; Liquid; Vibrating tube method
valueKind: mass density (kg/m3)
Could you give me the number in kg/m3? Just the number is fine.

Prompt: Name the reported mass density value associated with the compound CCCC[N+]1(C)CCCC1.O=S(=O)([N-]S(=O)(=O)C(F)(F)F)C(F)(F)F
Response: 1338.3

Prompt: Entry under review: CCCCn1cc[n+](C)c1C.O=S(=O)([N-]S(=O)(=O)C(F)(F)F)C(F)(F)F . Reported mass density?
Response: 1359.8

Prompt: Would you mind telling me what mass density value was observed for CCCCCCCCCCCCCC[P+](CCCCCC)(CCCCCC)CCCCCC.FC(F)(F)C(F)(F)[P-](F)(F)(F)(C(F)(F)C(F)(F)F)C(F)(F)C(F)(F)F ?
Response: 1128.7

Prompt: What measured mass density goes with CCOS(=O)(=O)[O-].CCn1cc[n+](C)c1 [1-ethyl-3-methylimidazolium ethyl sulfate] ?
Response: 1194.1

Prompt: Look at this compound and give its reported mass density. COCC[N+]1(C)CCCC1.O=S(=O)([N-]S(=O)(=O)C(F)(F)F)C(F)(F)F
Response: 1394.2

Prompt: Dear colleague, I am looking for the recorded mass density of the following compound: CCCC[N+]1(C)CCCC1.O=S(=O)([O-])C(F)(F)F [1-butyl-1-methylpyrrolidinium trifluoromethanesulfonate]
Response: 1205.9

Prompt: Fill blank: measured mass density of the compound CCCC[N+]1(C)CCCC1.FC(F)(F)C(F)(F)[P-](F)(F)(F)(C(F)(F)C(F)(F)F)C(F)(F)C(F)(F)F is ____.
Response: 1515.3

Prompt: GET /values?readout=mass density&item= CCCCCCOS(=O)(=O)[O-].CC[n+]1ccn(C)c1 [3-ethyl-1-methyl-1H-imidazolium hexyl sulfate]
Response: 1088.1
